testedOn: human alpha thrombin (Homo sapiens, UniProt P00734)
Construct: Purified human alpha-thrombin; purchased Enzyme Research Laboratories, Inc
protocol: Thrombin (fIIa) IC50 assay, chromogenic substrate Pefachrome t-PA
Type: biochemical
Structures can show the parent of a compound that is named as a salt.
recordedEndpoint: pIC50
// pIC50 is dimensionless: -log10 of concentration (M)

[Q] What measured pIC50 is associated with Cc1ccc(F)cc1S(=O)(=O)Nc1cccn(CC(=O)N[C@H](C=O)CCCNC(=N)N)c1=O on human alpha thrombin (Homo sapiens, UniProt P00734)?
[A] 8.71

[Q] What measured pIC50 is associated with Cc1ccc(F)cc1S(=O)(=O)Nc1ccc(C)n(CC(=O)N[C@H](C=O)CCCNC(=N)N)c1=O [Compound 126B] on human alpha thrombin (Homo sapiens, UniProt P00734)?
[A] 9.05

[Q] What measured pIC50 is associated with Cc1ncc(NS(=O)(=O)Cc2ccccc2)c(=O)n1CC(=O)N[C@H](C=O)CCCNC(=N)N [Compound D, trifluoroacetate salt] on human alpha thrombin (Homo sapiens, UniProt P00734)?
[A] 8.63

[Q] What measured pIC50 is associated with N=C(N)NCCC[C@@H](C=O)NC(=O)Cn1cccc(NS(=O)(=O)Cc2cc(F)ccc2F)c1=O [Compound 121P] on human alpha thrombin (Homo sapiens, UniProt P00734)?
[A] 8.76

[Q] What measured pIC50 is associated with N=C(N)NCCC[C@@H](C=O)NC(=O)Cn1cccc(NS(=O)(=O)c2ccccc2F)c1=O [Compound 121A] on human alpha thrombin (Homo sapiens, UniProt P00734)?
[A] 7.83

[Q] What measured pIC50 is associated with N=C(N)NCCC[C@@H](C=O)NC(=O)Cn1cccc(NS(=O)(=O)c2cccc(C(F)(F)F)c2)c1=O on human alpha thrombin (Homo sapiens, UniProt P00734)?
[A] 8.51

[Q] What measured pIC50 is associated with N=C(N)NCCC[C@@H](C=O)NC(=O)Cn1cccc(NS(=O)(=O)c2ccccc2C(F)(F)F)c1=O on human alpha thrombin (Homo sapiens, UniProt P00734)?
[A] 8.25

[Q] What measured pIC50 is associated with Cc1cccc(S(=O)(=O)Nc2cccn(CC(=O)N[C@H](C=O)CCCNC(=N)N)c2=O)c1 on human alpha thrombin (Homo sapiens, UniProt P00734)?
[A] 9.07

[Q] What measured pIC50 is associated with COc1ccc(OC)c(S(=O)(=O)Nc2ccc(C)n(CC(=O)N[C@H](C=O)CCCNC(=N)N)c2=O)c1 [Compound 126C] on human alpha thrombin (Homo sapiens, UniProt P00734)?
[A] 9.28

[Q] What measured pIC50 is associated with N=C(N)NCCC[C@@H](C=O)NC(=O)Cn1cccc(NS(=O)(=O)Cc2ccccc2F)c1=O [Compound 121J] on human alpha thrombin (Homo sapiens, UniProt P00734)?
[A] 9.12

[Q] What measured pIC50 is associated with COc1ccccc1S(=O)(=O)Nc1cccn(CC(=O)N[C@H](C=O)CCCNC(=N)N)c1=O on human alpha thrombin (Homo sapiens, UniProt P00734)?
[A] 8.70

[Q] What measured pIC50 is associated with COc1ccc(OC)c(S(=O)(=O)Nc2cccn(CC(=O)N[C@H](C=O)CCCNC(=N)N)c2=O)c1 [Compound 121E] on human alpha thrombin (Homo sapiens, UniProt P00734)?
[A] 9.22

[Q] What measured pIC50 is associated with N=C(N)NCCC[C@@H](C=O)NC(=O)Cn1cccc(NS(=O)(=O)CCc2ccccc2)c1=O [Compound 121G] on human alpha thrombin (Homo sapiens, UniProt P00734)?
[A] 7.33

[Q] What measured pIC50 is associated with COc1cccc(S(=O)(=O)Nc2cccn(CC(=O)N[C@H](C=O)CCCNC(=N)N)c2=O)c1 on human alpha thrombin (Homo sapiens, UniProt P00734)?
[A] 9.19

====

testedOn: human alpha thrombin (Homo sapiens, UniProt P00734)
Construct: Purified human alpha-thrombin; purchased Enzyme Research Laboratories, Inc
protocol: Thrombin (fIIa) IC50 assay, chromogenic substrate Pefachrome t-PA
Format: biochemical
Structures can show the parent of a compound that is named as a salt.
recordedEndpoint: IC50 (nM)
The reply should be a number in nM, with the unit left off.

[Q] IC50 for N=C(N)NCCC[C@@H](C=O)NC(=O)Cn1cccc(NS(=O)(=O)Cc2ccccc2)c1=O [Example 10, trifluoroacetate salt] ?
[A] 0.66

[Q] IC50 for Cc1ccccc1S(=O)(=O)Nc1cccn(CC(=O)N[C@H](C=O)CCCNC(=N)N)c1=O [Compound 2-Me-phenyl] ?
[A] 1.4

[Q] IC50 for COc1ccc(Cl)cc1S(=O)(=O)Nc1cccn(CC(=O)NC(C=O)CCCNC(=N)N)c1=O (stereo not shown) [2-OMe, 5-Cl-phenyl, trifluoroacetate salt] ?
[A] 1.16

[Q] IC50 for CS(=O)(=O)Nc1c(CCc2ccccc2)ccn(CC(=O)N[C@H](C=O)CCCNC(=N)N)c1=O [Compound 134B] ?
[A] 7.95

[Q] IC50 for CCc1ccc(NS(=O)(=O)c2cc(F)ccc2C)c(=O)n1CC(=O)N[C@H](C=O)CCCNC(=N)N [Compound 126F] ?
[A] 0.71

[Q] IC50 for COC(=O)c1ccccc1CS(=O)(=O)Nc1cccn(CC(=O)N[C@H](C=O)CCCNC(=N)N)c1=O [Compound 121M] ?
[A] 0.623

[Q] IC50 for N=C(N)NCCC[C@@H](C=O)NC(=O)Cn1cccc(NS(=O)(=O)c2ccccc2N)c1=O [Compound 2-NH2phenyl] ?
[A] 3.7
